Values compiled from PubChem BioAssay (EPA / NIEHS).

target: Cellular tumor antigen p53 (Homo sapiens) (UniProt P04637); test: TOX21_p53_BLA_p3_ratio: Tox21 HCT-116 p53 Agonism Beta-lactamase Assay, Ratio, Phase 3 (AID 2283596)
Sequence (P04637 whole entry, looked up): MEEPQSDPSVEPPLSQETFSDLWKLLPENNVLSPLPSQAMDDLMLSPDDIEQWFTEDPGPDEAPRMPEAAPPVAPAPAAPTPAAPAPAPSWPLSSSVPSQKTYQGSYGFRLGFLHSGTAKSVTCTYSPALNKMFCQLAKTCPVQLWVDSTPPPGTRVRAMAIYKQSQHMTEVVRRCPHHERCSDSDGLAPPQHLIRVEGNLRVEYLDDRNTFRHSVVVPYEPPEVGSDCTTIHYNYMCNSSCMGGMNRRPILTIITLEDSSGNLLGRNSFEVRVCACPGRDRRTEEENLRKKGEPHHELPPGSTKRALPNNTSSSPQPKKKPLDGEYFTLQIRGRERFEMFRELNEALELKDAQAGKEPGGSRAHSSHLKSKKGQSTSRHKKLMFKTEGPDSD
Results filed as inconclusive are left out. Activity calls are given as the source filed them. The calls were made as follows: active = hit-call score of the fitted dose curve at least 0.9, where 1 is the maximum; inconclusive = response in the unintended direction; inactive = score below 0.9.
Result category, one only: yes (active), no (inactive)

Some solved entries appear below for comparison.
CCCC1([C@H](O)C/C=C/[C@H]2[C@H](O)CC(=O)[C@@H]2CCCCCCC(=O)OC)CCC1	no
Cc1cc(Nc2ccc(O)cc2)ccc1N	yes
COC(=O)CCc1ccc(OCC(O)CNC(C)C)cc1 (stereo not given)	no
CCCCCCCCCCCCCCCCCC(=O)[O][Al]	no
CC(NN)c1ccccc1 (stereo not given)	no

query: Please indicate how the test categorized `O=C(N/N=C/c1ccccc1O)c1ccncc1` .
result: no

query: Please indicate how the test categorized `C[C@@H]1[C@H](O)[C@@H](C)/C=C/C=C/C=C/C=C/C=C/C=C/C=C/[C@H](O[C@@H]2O[C@H](C)[C@@H](O)[C@H](N)[C@@H]2O)C[C@@H]2O[C@](O)(C[C@@H](O)C[C@@H](O)[C@H](O)CC[C@@H](O)C[C@@H](O)CC(=O)O[C@H]1C)C[C@H](O)[C@H]2C(=O)O` .
result: no

query: Please indicate how the test categorized `CC(=O)N1C[C@H](O)C[C@H]1C(=O)O` .
result: no

query: Please indicate how the test categorized `CCCCCCCCCCCCCCCC(=O)OC[C@H](COP(=O)([O-])OCC[N+](C)(C)C)OC(=O)CCCCCCCCCCCCCCC` .
result: no

query: Please indicate how the test categorized CCCCC(O)c1ccccc1 (stereo not given) .
result: no

====

Read-out: Interleukin-1 alpha (IL1a), IL1A (gene 3552)
Test: BSK_KF3CT_IL1a: BioMAP Diversity Plus: KF3CT Assay for Interleukin-1 alpha (IL1a) Biomarker Activity (AID 2283070)
Settings: primary human keratinocytes with fibroblasts; actives raise or lower the signal
Description: BSK_KF3CT is a cell-based, multiplexed-readout assay that uses keratinocytes and foreskin fibroblasts, a human skin primary cell co-culture, with measurements taken at 24 hours after chemical dosing in a 96-well plate.BSK_KF3CT_IL1a is an assay component measured in the BSK_KF3CT assay. It measures IL-1a antibody related to regulation of gene expression using ELISA technology.Data from the assay component BSK_KF3CT_IL1a was analyzed into 1 assay endpoint. […]
Active and inactive are the calls of the source. Rule for the calls: active = hit-call score of the fitted dose curve at least 0.9, where 1 is the maximum; inactive = score below 0.9.
REPORTED PROPERTY: outcome

CN(C)CCC(c1ccc(Cl)cc1)c1ccccn1 (centres undefined)	inactive
CCC[Si](OC(C)=O)(OC(C)=O)OC(C)=O	inactive
COc1ccccc1Oc1c(NS(=O)(=O)c2ccc(C(C)(C)C)cc2)nc(-c2ncccn2)nc1OCCO	inactive
CCCCC(CC)COC(=O)C=Cc1ccc(OC)cc1 (centres undefined)	inactive

====

read-out: CD69, CD69 (gene 969); test: BSK_SAg_CD69: BioMAP Diversity Plus: SAg Assay for CD69 Biomarker Activity (AID 2283089); conditions: primary human HUVEC with PBMC; actives raise or lower the signal
Calls of active or inactive are those of the source. How the source made its calls: active means hit-call score of the fitted dose curve at least 0.9, where 1 is the maximum; inactive means score below 0.9.
REPORTED PROPERTY: outcome

O=C(C(=O)c1ccccc1)c1ccccc1	inactive
CC[N+](CC)(CC(=O)Nc1c(C)cccc1C)Cc1ccccc1	inactive
COc1ccccc1Oc1c(NS(=O)(=O)c2ccc(C(C)(C)C)cc2)nc(-c2ncccn2)nc1OCCO	inactive
